# method: Hemolytic activity against rat erythrocytes at 100 ug/ml incubated for 1 hr by absorbance based assay
# Type: toxicity, cell-based, Erythrocyte
# experimental-conditions: erythrocytes, at 100 µg/mL, read-out: Activity
parameter-measured: hemolysis at 1 h, 100 ug/ml

CN[C@H](CC(C)C)C(=O)N[C@H]1C(=O)N[C@@H](CC(N)=O)C(=O)N[C@H]2C(=O)N[C@H]3C(=O)N[C@H](C(=O)N[C@H](C(=O)O)c4cc(O)cc(O)c4-c4cc3ccc4O)[C@H](O)c3ccc(c(Cl)c3)Oc3cc2cc(c3O[C@@H]2O[C@H](CO)[C@@H](O)[C@H](O)[C@H]2O[C@H]2C[C@](C)(N)[C@H](O)[C@H](C)O2)Oc2ccc(cc2Cl)[C@H]1O: ~6%

* * *

The entries below are paired with their reported MIC.
# Test system: Acinetobacter baumannii
# method: Antibacterial activity against carbapenem-resistant Acinetobacter baumannii CRAB-1 clinical isolate incubated for 16 to 24 hrs by broth microdilution assay
# Type: functional
# experimental-conditions: time 16-24 hrs
parameter-measured: MIC (µg/mL)

CN[C@H](CC(C)C)C(=O)N[C@H]1C(=O)N[C@@H](CC(N)=O)C(=O)N[C@H]2C(=O)N[C@H]3C(=O)N[C@H](C(=O)N[C@H](C(=O)O)c4cc(O)cc(O)c4-c4cc3ccc4O)[C@H](O)c3ccc(c(Cl)c3)Oc3cc2cc(c3O[C@@H]2O[C@H](CO)[C@@H](O)[C@H](O)[C@H]2O[C@H]2C[C@](C)(NCCC[S+](C)C[C@@H](O)COc3ccccc3)[C@H](O)[C@H](C)O2)Oc2ccc(cc2Cl)[C@H]1O.O=C([O-])C(F)(F)F (some centres not stated): 128
CN[C@H](CC(C)C)C(=O)N[C@H]1C(=O)N[C@@H](CC(N)=O)C(=O)N[C@H]2C(=O)N[C@H]3C(=O)N[C@H](C(=O)N[C@H](C(=O)O)c4cc(O)c(CNCCC[S+](C)CC(O)COc5ccc(-c6ccc(C(F)(F)F)cc6)cc5)c(O)c4-c4cc3ccc4O)[C@H](O)c3ccc(c(Cl)c3)Oc3cc2cc(c3O[C@@H]2O[C@H](CO)[C@@H](O)[C@H](O)[C@H]2O[C@H]2C[C@](C)(N)[C@H](O)[C@H](C)O2)Oc2ccc(cc2Cl)[C@H]1O.O=C([O-])C(F)(F)F (some centres not stated): 32

* * *

# Tested on: Staphylococcus aureus
# method: Antibacterial activity against vancomycin-intermediate Staphylococcus aureus Mu50 incubated for 16 to 24 hrs by broth microdilution assay
# Assay type: functional
# experimental-conditions: time 16-24 hrs
Parameter: MIC. Scope: all listed entries.
parameter-measured: MIC (µg/mL)

CN[C@H](CC(C)C)C(=O)N[C@H]1C(=O)N[C@@H](CC(N)=O)C(=O)N[C@H]2C(=O)N[C@H]3C(=O)N[C@H](C(=O)N[C@H](C(=O)NCCC[S+](C)CC(O)COc4ccccc4)c4cc(O)cc(O)c4-c4cc3ccc4O)[C@H](O)c3ccc(c(Cl)c3)Oc3cc2cc(c3O[C@@H]2O[C@H](CO)[C@@H](O)[C@H](O)[C@H]2O[C@H]2C[C@](C)(N)[C@H](O)[C@H](C)O2)Oc2ccc(cc2Cl)[C@H]1O.O=C([O-])C(F)(F)F (stereo not given in full): 2
CN[C@H](CC(C)C)C(=O)N[C@H]1C(=O)N[C@@H](CC(N)=O)C(=O)N[C@H]2C(=O)N[C@H]3C(=O)N[C@H](C(=O)N[C@H](C(=O)NCCCSCC(O)COc4ccc(-c5ccc(C(F)(F)F)cc5)cc4)c4cc(O)cc(O)c4-c4cc3ccc4O)[C@H](O)c3ccc(c(Cl)c3)Oc3cc2cc(c3O[C@@H]2O[C@H](CO)[C@@H](O)[C@H](O)[C@H]2O[C@H]2C[C@](C)(N)[C@H](O)[C@H](C)O2)Oc2ccc(cc2Cl)[C@H]1O (stereo not given in full): 1
CN[C@H](CC(C)C)C(=O)N[C@H]1C(=O)N[C@@H](CC(N)=O)C(=O)N[C@H]2C(=O)N[C@H]3C(=O)N[C@H](C(=O)N[C@H](C(=O)NCCC[S+](C)C[C@H](O)COc4ccccc4)c4cc(O)cc(O)c4-c4cc3ccc4O)[C@H](O)c3ccc(c(Cl)c3)Oc3cc2cc(c3O[C@@H]2O[C@H](CO)[C@@H](O)[C@H](O)[C@H]2O[C@H]2C[C@](C)(N)[C@H](O)[C@H](C)O2)Oc2ccc(cc2Cl)[C@H]1O.O=C([O-])C(F)(F)F (stereo not given in full): 1
CCCCCCCCCC(=O)N[C@@H](Cc1c[nH]c2ccccc12)C(=O)N[C@@H](CC(N)=O)C(=O)N[C@@H](CC(=O)O)C(=O)N[C@@H]1C(=O)NCC(=O)N[C@@H](CCCN)C(=O)N[C@@H](CC(=O)O)C(=O)N[C@H](C)C(=O)N[C@@H](CC(=O)O)C(=O)NCC(=O)N[C@H](CO)C(=O)N[C@@H]([C@@H](C)CC(=O)O)C(=O)N[C@@H](CC(=O)c2ccccc2N)C(=O)O[C@@H]1C: 4
CN[C@H](CC(C)C)C(=O)N[C@H]1C(=O)N[C@@H](CC(N)=O)C(=O)N[C@H]2C(=O)N[C@H]3C(=O)N[C@H](C(=O)N[C@H](C(=O)O)c4cc(O)cc(O)c4-c4cc3ccc4O)[C@H](O)c3ccc(c(Cl)c3)Oc3cc2cc(c3O[C@@H]2O[C@H](CO)[C@@H](O)[C@H](O)[C@H]2O[C@H]2C[C@](C)(NCCC[S+](C)CC(O)COc3ccccc3)[C@H](O)[C@H](C)O2)Oc2ccc(cc2Cl)[C@H]1O.O=C([O-])C(F)(F)F (stereo not given in full): 1

* * *

# Test system: Acinetobacter baumannii
# method: Antibacterial activity against carbapenem-resistant Acinetobacter baumannii CRAB-1 clinical isolate incubated for 16 to 24 hrs by broth microdilution assay
# Type: functional
# experimental-conditions: time 16-24 hrs
parameter-measured: MIC

CN[C@H](CC(C)C)C(=O)N[C@H]1C(=O)N[C@@H](CC(N)=O)C(=O)N[C@H]2C(=O)N[C@H]3C(=O)N[C@H](C(=O)N[C@H](C(=O)NCCC[S+](C)C[C@H](O)COc4ccccc4)c4cc(O)cc(O)c4-c4cc3ccc4O)[C@H](O)c3ccc(c(Cl)c3)Oc3cc2cc(c3O[C@@H]2O[C@H](CO)[C@@H](O)[C@H](O)[C@H]2O[C@H]2C[C@](C)(N)[C@H](O)[C@H](C)O2)Oc2ccc(cc2Cl)[C@H]1O.O=C([O-])C(F)(F)F (stereo partly drawn): > 128 µg/mL
CN[C@H](CC(C)C)C(=O)N[C@H]1C(=O)N[C@@H](CC(N)=O)C(=O)N[C@H]2C(=O)N[C@H]3C(=O)N[C@H](C(=O)N[C@H](C(=O)O)c4cc(O)cc(O)c4-c4cc3ccc4O)[C@H](O)c3ccc(c(Cl)c3)Oc3cc2cc(c3O[C@@H]2O[C@H](CO)[C@@H](O)[C@H](O)[C@H]2O[C@H]2C[C@](C)(NCCC[S+](C)C[C@H](O)COc3ccccc3)[C@H](O)[C@H](C)O2)Oc2ccc(cc2Cl)[C@H]1O.O=C([O-])C(F)(F)F (stereo partly drawn): > 128 µg/mL
CN[C@H](CC(C)C)C(=O)N[C@H]1C(=O)N[C@@H](CC(N)=O)C(=O)N[C@H]2C(=O)N[C@H]3C(=O)N[C@H](C(=O)N[C@H](C(=O)NCCC[S+](C)CC(O)CCc4ccccc4)c4cc(O)cc(O)c4-c4cc3ccc4O)[C@H](O)c3ccc(c(Cl)c3)Oc3cc2cc(c3O[C@@H]2O[C@H](CO)[C@@H](O)[C@H](O)[C@H]2O[C@H]2C[C@](C)(N)[C@H](O)[C@H](C)O2)Oc2ccc(cc2Cl)[C@H]1O.O=C([O-])C(F)(F)F (stereo partly drawn): > 128 µg/mL

* * *

# Test system: Staphylococcus aureus
# method: Antibacterial activity against vancomycin-intermediate Staphylococcus aureus Mu50 incubated for 16 to 24 hrs by broth microdilution assay
# Type: functional
# experimental-conditions: time 16-24 hrs
parameter-measured: MIC (µg/mL)

CN[C@H](CC(C)C)C(=O)N[C@H]1C(=O)N[C@@H](CC(N)=O)C(=O)N[C@H]2C(=O)N[C@H]3C(=O)N[C@H](C(=O)N[C@H](C(=O)O)c4cc(O)c(CNCCC[S+](C)C[C@@H](O)COc5ccccc5)c(O)c4-c4cc3ccc4O)[C@H](O)c3ccc(c(Cl)c3)Oc3cc2cc(c3O[C@@H]2O[C@H](CO)[C@@H](O)[C@H](O)[C@H]2O[C@H]2C[C@](C)(N)[C@H](O)[C@H](C)O2)Oc2ccc(cc2Cl)[C@H]1O.O=C([O-])C(F)(F)F (some centres not stated): 4
CN[C@H](CC(C)C)C(=O)N[C@H]1C(=O)N[C@@H](CC(N)=O)C(=O)N[C@H]2C(=O)N[C@H]3C(=O)N[C@H](C(=O)N[C@H](C(=O)O)c4cc(O)cc(O)c4-c4cc3ccc4O)[C@H](O)c3ccc(c(Cl)c3)Oc3cc2cc(c3O[C@@H]2O[C@H](CO)[C@@H](O)[C@H](O)[C@H]2O[C@H]2C[C@](C)(NCCC[S+](C)C[C@H](O)COc3ccccc3)[C@H](O)[C@H](C)O2)Oc2ccc(cc2Cl)[C@H]1O.O=C([O-])C(F)(F)F (some centres not stated): 1
